Measured IC50 by item
- Measurement Target: CDK1 (Homo sapiens)
- Construct: purchased Carna Company
- Sequence (P06493 whole entry): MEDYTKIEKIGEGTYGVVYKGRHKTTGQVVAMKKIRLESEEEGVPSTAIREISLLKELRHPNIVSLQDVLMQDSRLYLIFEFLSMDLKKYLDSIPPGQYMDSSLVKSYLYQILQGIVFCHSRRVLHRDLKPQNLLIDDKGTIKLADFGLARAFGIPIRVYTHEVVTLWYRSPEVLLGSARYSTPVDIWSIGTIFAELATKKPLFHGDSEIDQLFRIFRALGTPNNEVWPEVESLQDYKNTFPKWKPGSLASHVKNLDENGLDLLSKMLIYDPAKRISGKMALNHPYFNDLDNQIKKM
- Sequence (P14635 whole entry partner): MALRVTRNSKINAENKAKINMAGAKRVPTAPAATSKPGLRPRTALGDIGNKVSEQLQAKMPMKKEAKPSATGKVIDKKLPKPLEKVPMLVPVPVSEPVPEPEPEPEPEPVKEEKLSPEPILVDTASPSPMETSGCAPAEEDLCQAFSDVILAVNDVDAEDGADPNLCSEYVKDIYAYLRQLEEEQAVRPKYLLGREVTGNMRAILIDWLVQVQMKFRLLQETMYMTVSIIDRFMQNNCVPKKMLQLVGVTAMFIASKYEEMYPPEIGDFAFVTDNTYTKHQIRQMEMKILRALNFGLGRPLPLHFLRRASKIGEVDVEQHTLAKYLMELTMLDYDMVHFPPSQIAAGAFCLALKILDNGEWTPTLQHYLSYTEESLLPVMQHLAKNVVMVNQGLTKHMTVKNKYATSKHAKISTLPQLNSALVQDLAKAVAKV
- Procedure Text: CDK enzymology experiment in vitro, capillary mobility shift assay (MSA)
- Type: biochemical
- Details: read-out: CDK1 (nM) inhibitory IC50

The following compounds have reported results that may help.
CN(C)CCN(c1nc(NC2CCN(S(=O)(=O)c3cnn(C)c3)CC2)ncc1C#N)C1CCCC1 : 100 to 1000 nM
O=S(=O)(c1ccc([C@@H]2CCCNC2)cc1)N1CCC(Nc2ncc(C(F)(F)F)c(O[C@H]3CCOC3)n2)CC1 (single isomer, unassigned) : 2.5 to 10 nM
O=S(=O)(c1ccc(C2=CCCNC2)cc1)N1CCC(Nc2ncc(C(F)(F)F)c(O[C@H]3CCOC3)n2)CC1 : 2.5 to 10 nM
Cn1cc(-c2ccc(S(=O)(=O)N3CCC(Nc4ncc(C(F)(F)F)c(O[C@H]5CCOC5)n4)CC3)cc2)cn1 : 0.5 to 2.5 nM
CS(=O)(=O)N1CCC(Nc2ncc(C(F)(F)F)c(NC3CCCC3)n2)CC1 : 100 to 1000 nM

IC50 reading for `O=S(=O)(c1cnn(CCO)c1)N1CCC(Nc2ncc(C(F)(F)F)c(O[C@H]3CCOC3)n2)CC1` : 2.5 to 10 nM

Input `CS(=O)(=O)N1CCC(Nc2ncc(C#N)c(NC3CCCC3)n2)CC1` . Output IC50: 100 to 1000 nM

IC50 recorded for this compound, `Cn1cnc(S(=O)(=O)N2CCC(Nc3ncc(C#N)c(NC4CCCC4)n3)CC2)c1` , is 10 to 50 nM

Item: O=S(=O)(c1ccc([C@@H]2CCNC2)cc1)N1CCC(Nc2ncc(C(F)(F)F)c(O[C@H]3CCOC3)n2)CC1 (single isomer, unassigned) | IC50: 10 to 50 nM

Noted for `O=S(=O)(c1ccc(C2=CCNC2)cc1)N1CCC(Nc2ncc(C(F)(F)F)c(O[C@H]3CCOC3)n2)CC1` : its IC50 reads 2.5 to 10 nM

Looking up Cn1cc(S(=O)(=O)N2CCC(Nc3ncc(C#N)c(N[C@H]4CC[C@@H](O)C4)n3)CC2)cn1 (racemic) , I see its IC50 listed as 10 to 50 nM

// sample `Cn1cnc(S(=O)(=O)N2CCC(Nc3ncc(C(F)(F)F)c(NC4CCCC4)n3)CC2)c1` , its IC50 was 10 to 50 nM

Input `O=S(=O)(c1ccc(C2CNC2)cc1)N1CCC(Nc2ncc(C(F)(F)F)c(O[C@H]3CCOC3)n2)CC1` . Output IC50: 2.5 to 10 nM

# IC50 of `O=S(=O)(c1ccc(C2=CCNCC2)cc1)N1CCC(Nc2ncc(C(F)(F)F)c(O[C@H]3CCOC3)n2)CC1` = 2.5 to 10 nM

Recorded IC50 (compound `Cn1cc(S(=O)(=O)N2CCC(Nc3ncc(C(F)(F)F)c(O[C@H]4CCOC4)n3)CC2)cn1` ): 10 to 50 nM

Recorded result, `O=S(=O)(c1ccc(N2CCNCC2)cc1)N1CCC(Nc2ncc(C(F)(F)F)c(O[C@H]3CCOC3)n2)CC1` , IC50: 2.5 to 10 nM

Form field IC50, entry `CC(C)Nc1nc(NC2CCN(S(C)(=O)=O)CC2)ncc1C#N` : 100 to 1000 nM
